From: paper PMC12670164

- Tested on: CYP1A2
- TEST: clinical
- CONDITION_CONTEXT: both, human, plasma, po, 180 mg, probe caffeine

[
  {
    "STRUCTURE_SMILES": "Cn1c(=O)c2c(ncn2C)n(C)c1=O",
    "TEST_TARGET": "CYP1A2",
    "UNIT_OF_MEASURE": "ng·h/mL",
    "AUC(0-t)": 33200
  }
]

###

- TEST_TARGET: CYP3A4 (Homo sapiens)
- Sequence (P08684 whole entry): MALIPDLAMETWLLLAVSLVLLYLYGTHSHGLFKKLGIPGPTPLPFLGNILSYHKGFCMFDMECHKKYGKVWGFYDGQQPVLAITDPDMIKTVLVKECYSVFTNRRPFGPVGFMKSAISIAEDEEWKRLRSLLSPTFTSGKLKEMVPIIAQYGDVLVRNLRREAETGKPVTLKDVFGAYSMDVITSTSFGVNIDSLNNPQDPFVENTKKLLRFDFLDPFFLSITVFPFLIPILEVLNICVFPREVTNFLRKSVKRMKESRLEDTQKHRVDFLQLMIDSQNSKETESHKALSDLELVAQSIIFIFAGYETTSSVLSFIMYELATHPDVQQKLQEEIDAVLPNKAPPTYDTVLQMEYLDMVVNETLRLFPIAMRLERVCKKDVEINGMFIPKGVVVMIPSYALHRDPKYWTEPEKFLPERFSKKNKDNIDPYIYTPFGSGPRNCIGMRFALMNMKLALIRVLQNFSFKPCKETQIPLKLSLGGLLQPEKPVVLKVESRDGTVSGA
- TEST: clinical
- CONDITION_CONTEXT: both, human, in vivo, po, 7.5 mg

[
  {
    "COMPOUND": "Cc1ncc2n1-c1ccc(Cl)cc1C(c1ccccc1F)=NC2 [Midazolam, midazolam, reference compound]",
    "UNIT_OF_MEASURE": "ng·h/mL",
    "AUC(0-t)": 166
  }
]
